# assay text: Permeability in CALU-3 cells
# Format: in vitro ADME
# measurement parameters: human; basal-to-apical, CALU-3 cell monolayers, pH 7.4, 37° C., 10 μM compound
measured quantity: Papp B→A at 90 min, 10 μM (×10⁻⁶ cm/s)

(1) CCn1c(CNC(=O)c2nc(Cl)c(N)nc2N)[n+](CCOCCOCCO)c2ccc(O)cc21
(2) CCn1c(CNC(=O)c2nc(Br)c(N)nc2N)[n+](CCOCCOCCO)c2ccc(O)cc21.O=C([O-])C(F)(F)F
// pick min by Papp B→A at 90 min, 10 μM: 1 , 2 Use the label to indicate which entry you chose.
2
